# Tested on: FGFR1
# conditions: concentration: 1 μM, replicates: in singlicate; n = 1;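 also: KINOMEscan kinase panel screen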
Rule: Yes for %Inh not less than 4%, No for anything less.

molecule=COc1cc(OC)cc(-c2cc3cnc(N)nc3nc2NC(=O)NC(C)(C)C)c1 class_assignment=Yes
molecule="O=C1NC(=O)C(c2ccccc2)=C1Nc1cccc(O)c1 [SB-390534]" class_assignment=Yes
molecule="CN1C(=O)C(Nc2cc(Cl)c(O)c(Cl)c2)=C(c2ccc(Cl)cc2)C1=O [SB-404321]" class_assignment=No

Q. Please check the record COc1ccc(-c2coc3ccc(-c4nnc(SCc5cccc(C#N)c5)o4)cc23)cc1 and state if its %Inh is at or above 4%.
A. Yes

Q. Please check the record COc1cc2nccc(Nc3cccc(Oc4ccccc4)c3)c2cc1OC.Cl [GW284543] and state if its %Inh is at or above 4%.
A. Yes

Q. Please check the record OCCCNc1nccc(-c2c(-c3cccc(C(F)(F)F)c3)nn3cc(C(F)(F)F)ccc23)n1 [GW630813] and state if its %Inh is at or above 4%.
A. No

Q. Please check the record Nc1nccc2scc(-c3ccc4c(c3)CCN4C(=O)Cc3ccccc3)c12 [GSK2576924] and state if its %Inh is at or above 4%.
A. No

Q. Please check the record COc1cc2ncn(-c3cc(OCCCc4ccccc4)c(C(N)=O)s3)c2cc1OC [GSK205189] and state if its %Inh is at or above 4%.
A. No

----------
# System: AKT2
# conditions: concentration: 1 μM, replicates: in singlicate; n = 1
Rule: Y for %Inh not less than 9%, N for anything less.

compound=Nc1ncnc2c1ncn2-c1cccc(F)c1 class_assignment=Y
compound="Cc1nnc(-c2ccc3ncn(-c4ccc(S(C)=O)cc4)c3c2)o1 (stereo not shown)" class_assignment=N
compound=Nc1nccc2scc(-c3ccc4c(c3)CCN4C(=O)Cc3ccccc3)c12 class_assignment=Y
compound=Nc1ncnc2c1ncn2-c1cccc2ccccc12 class_assignment=N
compound=Nc1n[nH]c2nnc(-c3ccccc3)c(-c3ccccc3)c12 class_assignment=Y

Q. Please check the record Cc1nc(N(C)[C@H]2CN(C(=O)CC#N)CC[C@H]2C)c2cc[nH]c2n1 and state if its %Inh is at or above 9%.
A. N

Q. Please check the record CCc1nc(-c2cccc(C)c2)c(-c2ccncc2)s1 and state if its %Inh is at or above 9%.
A. N

Q. Please check the record Nc1n[nH]c2ncc(-c3ccccc3)cc12 and state if its %Inh is at or above 9%.
A. Y

Q. Please check the record CCCC(=O)Nc1n[nH]c2ncc(-c3cccc4ccccc34)cc12 and state if its %Inh is at or above 9%.
A. Y

----------
# Test system: RPS6KA5(Kin.Dom.2-C-terminal)
# conditions: concentration: 1 μM, replicates: in singlicate; n = 1
measure name: %Inh (%)
Write the value in % as a bare number.

Solved entries (count: 5):
compound=OCCCNc1nccc(-c2c(-c3cccc(C(F)(F)F)c3)nn3cc(C(F)(F)F)ccc23)n1 measure_name=%Inh value_reported=16
compound=Nc1nccc2scc(-c3ccc4c(c3)CCN4C(=O)Cc3ccccc3)c12 measure_name=%Inh value_reported=14
compound=CCS(=O)(=O)c1ccc(OC)c(Nc2ncc(-c3ccc(F)cc3)o2)c1.Cl measure_name=%Inh value_reported=0
compound=Cn1c(=O)c(F)c(Nc2ccc(I)cc2F)c2c(=O)n(OC[C@H](O)CO)cnc21 measure_name=%Inh value_reported=9
compound=Cl.c1ccc(Cn2cnc3cc(Nc4ncnc5ccccc45)ccc32)cc1 measure_name=%Inh value_reported=7

Q. Report %Inh, nothing else, for this compound: O=C(Nc1ccc2c(c1)OCO2)NC1CCN(c2ccnc(NCc3ccc(F)cc3)n2)CC1
A. 0

Q. Report %Inh, nothing else, for this compound: Cc1nnc(-c2ccc(C)c(-c3ccc(C(=O)O)cc3)c2)o1
A. 0

Q. Report %Inh, nothing else, for this compound: Nc1n[nH]c2ncc(-c3ccccc3)cc12
A. 25

Q. Report %Inh, nothing else, for this compound: C[C@@H]1CC[C@H](C(=O)NC2CCCCC2)CN1c1cc(-c2ccc3c(N)n[nH]c3c2)nc(N)n1
A. 0

Q. Report %Inh, nothing else, for this compound: Cc1nnc(-c2ccc3ncn(-c4ccc(S(C)=O)cc4)c3c2)o1 (stereo not drawn)
A. 4

Q. Report %Inh, nothing else, for this compound: COc1ccc(CNC(=O)NC2CCN(c3ccnc(Nc4ccc(F)cc4)n3)C2)cc1 (stereo not drawn)
A. 27
